Source of measurements: patent US10030027B2

molecular target: human recombinant sGC enzyme (Homo sapiens (Human), UniProt Q02108+Q02153); test: Size Exclusion Chromatography (SEC) competition binding assay using [3H] Ex-77B as the radioligand; settings: [3H] Ex-77B radioligand, 24 hours at 37° C.
REPORTED ENDPOINT: Ki (nM)
One number for each entry, in nM.

CC1(c2ccc(CC(=O)O)cc2)C(=O)Nc2nc(-c3nn(CCC(F)(F)C(F)(F)F)c4ncccc34)nc(N)c21 (stereo not drawn) [Example 118A]
0.166
CC(C)(CCc1coc(C2(C)C(=O)Nc3nc(-c4nn(Cc5ncccc5F)c5cc(Cl)ccc45)nc(N)c32)n1)C(=O)O (stereo not drawn) [Example 207B]
0.095
CC(C)(Cc1coc(C2(C)C(=O)Nc3nc(-c4nn(Cc5ccccc5F)c5ncccc45)nc(N)c32)n1)C(=O)O (stereo not drawn)
0.047

Below are some molecules; for each one, tell me its Ki.
1. Cc1cccc(Cn2nc(-c3nc(N)c4c(n3)NC(=O)C4(C)c3nc(CC(C)(C)C(=O)O)co3)c3ccc(Cl)cc32)c1 (stereo not drawn) [Example 186A]
2. CC(C)(Cc1coc(C2(C)C(=O)Nc3nc(-c4nn(CC5CCCC5)c5cc(Cl)ccc45)nc(N)c32)n1)C(=O)O (stereo not drawn) [Example 161A]
3. CC(C)(Cc1csc(C2(C)C(=O)Nc3nc(-c4nn(CCC(F)(F)C(F)(F)F)c5ncc(F)cc45)nc(N)c32)n1)C(=O)O (stereo not drawn) [Example 84A]

Response:
1. 0.12
2. 0.081
3. 0.166

====

Please respond with reported pEC50 for every item in the list.
molecular target: sGC α1/β1 heterodimer (Homo sapiens (Human), UniProt Q02108+Q02153); test: Cell-based sGC functional assay (cyclic GMP assay for sGC activator: CASA assay); conditions: inflection point, 4P fit; CHO-K1/sGC cells; read-out: IP
Numbers only, as −log10 of the molar value.

Examples from the recorded data:
CC1CCC(Cn2nc(-c3nc(N)c4c(n3)NC(=O)[C@@]4(C)c3ccc(CCC(=O)O)cc3)c3ccc(Cl)cc32)CC1 (single isomer, unassigned) [Example 5BB]
6.48
CC1(c2cnn(CCC(=O)O)n2)C(=O)Nc2nc(-c3nn(CCC(F)(F)C(F)(F)F)c4ncccc34)nc(N)c21 (stereo not shown) [Example 109B]
5.78

Below are some compounds; for each one, tell me its pEC50.
1. CC1(c2nc(CCC(F)(F)C(=O)O)co2)C(=O)Nc2nc(-c3nn(Cc4ccccc4F)c4cc(Cl)ccc34)nc(N)c21 (stereo not shown) [Example 127A]
2. CC1(c2nc(CCC(=O)O)co2)C(=O)Nc2nc(-c3nn(Cc4ccccc4F)c4cc(Cl)ccc34)nc(N)c21 (stereo not shown) [Example 50A]
3. CC(C)(Cc1coc(C2(C)C(=O)Nc3nc(-c4nn(CC5CCCCC5)c5cc(F)ccc45)nc(N)c32)n1)C(=O)O (stereo not shown) [Example 202A]
4. CC(C)(Cc1ccc(C2(C)C(=O)Nc3nc(-c4nn(CCC(F)(F)C(F)(F)F)c5cc(Cl)ccc45)nc(N)c32)cc1)C(=O)O (stereo not shown) [Example 33B]

Response:
[7.28, 6.39, 6.67, 6.09]

====

target: sGC α1/β1 heterodimer (Homo sapiens (Human), UniProt Q02108+Q02153); assay: Cell-based sGC functional assay (cyclic GMP assay for sGC activator: CASA assay); details: CHO-K1, activity expressed as percentage of compound A (standard); CHO-K1/sGC cells; read-out: % Activation
REPORTED ENDPOINT: Emax (%)
One number for each entry, in %.

CCCCn1nc(-c2nc(N)c3c(n2)NC(=O)[C@@]3(C)c2ccc(CCC(=O)O)cc2)c2ccc(Cl)nc21 [Example 13B]
86

Below are some compounds; for each one, tell me its Emax.
1. CCCCn1nc(-c2nc(N)c3c(n2)NC(=O)[C@@]3(C)c2ccc(CCC(=O)O)cc2)c2ccc(Cl)cc21 [Example 38B]
2. CC1(c2nc3cc(C(=O)O)ccc3o2)C(=O)Nc2nc(-c3nn(Cc4ccccc4F)c4cc(Cl)ccc34)nc(N)c21 (stereo not shown) [Example 168B]
3. C[C@@]1(c2ccc(CCC(=O)O)cc2)C(=O)Nc2nc(-c3nn(Cc4ccccc4F)c4ccc(Cl)cc34)nc(N)c21 [Example 73B]
4. C[C@@]1(c2ccc(CCC(=O)O)cc2)C(=O)Nc2nc(-c3nn(CC4CCC(F)(F)CC4)c4cc(Cl)ccc34)nc(N)c21 [Example 58B]

Response:
1: 98; 2: 141; 3: 87; 4: 65

Below are some compounds; for each one, tell me its Emax.
1. CC1(c2cn(CC(=O)O)nn2)C(=O)Nc2nc(-c3nn(CCC(F)(F)C(F)(F)F)c4cc(Cl)ccc34)nc(N)c21 (stereo not shown) [Example 28B]
2. CC1(c2cccc(-c3nn[nH]n3)c2)C(=O)Nc2nc(-c3nn(Cc4ccccc4F)c4cc(F)ccc34)nc(N)c21 (stereo not shown) [Example 249B]
3. CC1(c2cccc(CCC(=O)O)c2)C(=O)Nc2nc(-c3nn(Cc4ccccc4F)c4cc(F)ccc34)nc(N)c21 (stereo not shown) [Example 61A]
4. CC1(c2nc(C[C@H](N)C(=O)O)cs2)C(=O)Nc2nc(-c3nn(Cc4ccccc4F)c4cc(Cl)ccc34)nc(N)c21 (stereo partly shown) [Example 234B]

Response:
[105, 98.5, 109, 135]

Below are some compounds; for each one, tell me its Emax.
1. CC(C)(CCc1coc(C2(C)C(=O)Nc3nc(-c4nn(Cc5ccccc5F)c5ccccc45)nc(N)c32)n1)C(=O)O (stereo not shown) [Example 220B]
2. CC(C)(Cc1ccc(C2(C)C(=O)Nc3nc(-c4nn(Cc5ccccc5F)c5cc(Cl)ccc45)nc(N)c32)nc1)C(=O)O (stereo not shown) [Example 131B]
3. Cc1oc(C2(C)C(=O)Nc3nc(-c4nn(Cc5ccccc5F)c5cc(Cl)ccc45)nc(N)c32)nc1CC(C)(C)C(=O)O (stereo not shown) [Example 170B]
4. CC(C)(Cc1csc([C@]2(C)C(=O)Nc3nc(-c4nn(Cc5ccccc5F)c5ccccc45)nc(N)c32)n1)c1nn[nH]n1 (single isomer, unassigned) [Example 236A]

Response:
[113, 120, 130, 110]
